Kindly state nuclear beta-catenin stimulation for each of the entries shown.
experiment: stimulators of nuclear beta-catenin in C2C12, primary screen, imaging, WNT3A-conditioned medium, mouse C2C12, NPC library (AID 1117326); details: at 10 µM, hits give high values; also: reference of the scale not given here
Answers are plain numbers, in %.

Please give nuclear beta-catenin stimulation, item by item, for the list that follows.
1. CCCCCCCCCCCCCCCCCCCCCCO
2. CN1CCN(c2cc3c(nn2)Oc2ccccc2N3C)CC1
3. COc1cc(N)c(Cl)cc1C(=O)NC1CCN(CCCOc2ccc(F)cc2)CC1OC (centres undefined)
4. NC1[C@H]2CN(c3nc4c(cc3F)c(=O)c(C(=O)O)cn4-c3ccc(F)cc3F)C[C@@H]12 (some centres undefined)
5. CCC1Nc2cc(Cl)c(S(N)(=O)=O)cc2S(=O)(=O)N1 (centres undefined)
6. O=C1OC(OC(=O)c2cccnc2Nc2cccc(C(F)(F)F)c2)c2ccccc21 (centres undefined)
7. CCn1ccnc1CC1COc2ccccc2O1 (centres undefined)
8. O=C(Nc1cccc2c(=O)cc(-c3nn[nH]n3)oc12)c1ccc(OCCCCc2ccccc2)cc1

# output
1: 3.4; 2: 0.9; 3: 13; 4: -0.6; 5: -0.1; 6: 21.1; 7: 1.8; 8: 0.3

Please give nuclear beta-catenin stimulation, item by item, for the list that follows.
1. O=C(CCCN1CCC(O)(c2cccc(C(F)(F)F)c2)CC1)c1ccc(F)cc1
2. CC(=O)OCC(=O)[C@@]1(OC(C)=O)[C@@H](C)C[C@H]2[C@@H]3C[C@H](F)C4=CC(=O)C=C[C@]4(C)[C@@]3(F)[C@@H](O)C[C@@]21C
3. Cc1ccc(C(=O)c2cc(O)c(O)c([N+](=O)[O-])c2)cc1
4. O=C(CCCN1CCC(O)(c2ccc(Br)cc2)CC1)c1ccc(F)cc1
5. C[C@]12CCC(=O)C=C1CC[C@H]1[C@@H]3CC[C@](O)(C(=O)CO)[C@@]3(C)C[C@H](O)[C@@]12F
6. CO[C@H]1O[C@@H]2O[C@@]3(C)CC[C@H]4[C@H](C)CC[C@@H]([C@@H]1C)[C@@]24OO3

# output
1. 14.8
2. 2.1
3. 5.2
4. 10.3
5. -2.1
6. 1.9

Please give nuclear beta-catenin stimulation, item by item, for the list that follows.
1. CN(C)CCn1nnnc1SCC1=C(C(=O)O)N2C(=O)[C@@H](NC(=O)Cc3csc(N)n3)[C@H]2SC1
2. CSCC[C@H](NC(=O)[C@H](Cc1c[nH]c2ccccc12)NC(=O)CCNC(=O)OC(C)(C)C)C(=O)N[C@@H](CC(=O)O)C(=O)N[C@@H](Cc1ccccc1)C(N)=O
3. COC(=O)[C@@H](N)Cc1ccc(O)c(O)c1
4. O=C1NCN(c2ccccc2)C12CCN(CCCC(c1ccc(F)cc1)c1ccc(F)cc1)CC2
5. CN1CC[C@H](c2c(O)cc(O)c3c(=O)cc(-c4ccccc4Cl)oc23)[C@H](O)C1

# output
1. -1.2
2. 0.1
3. 6.9
4. 31.6
5. 72.1

---

assay: phospholipid biosynthesis inhibitors in animal cells, primary screen, cell-based, LOPAC library, screen 4 (AID 1347384); details: phospholipid biosynthesis inhibition screen, at 10 µM
Calls of active or inactive are those of the source. The rule behind the calls is not given here.
Lab note: assign the record to one of active, inactive

# input Given `N[C@@H](CC(=O)O)C(=O)O` , state the outcome it received in this test.
# output inactive

Further cases:
# input Given `O=C(O)C1=CCCNC1` , state the outcome it received in this test.
# output inactive

# input Given `O=c1[nH]c(=O)n([C@H]2C[C@H](O)[C@@H](CO)O2)cc1Br` , state the outcome it received in this test.
# output inactive

# input Given `CN[C@H](CC(=O)O)C(=O)O` , state the outcome it received in this test.
# output inactive

# input Given `CN1CCC[C@@H]1Cc1c[nH]c2ccc(CCS(=O)(=O)c3ccccc3)cc12` , state the outcome it received in this test.
# output inactive

# input Given `NCCCCC(=O)O` , state the outcome it received in this test.
# output inactive

# input Given `COCC(=O)O[C@]1(CCN(C)CCCc2nc3ccccc3[nH]2)CCc2cc(F)ccc2[C@@H]1C(C)C` , state the outcome it received in this test.
# output inactive

# input Given `CC(=O)Oc1cc(C(C)C)c(OCCN(C)C)cc1C` , state the outcome it received in this test.
# output inactive

---

Kindly state growth inhibition for each of the entries shown.
test: inhibition of 3D7 malaria parasite growth – strain 3D7 (AID 2306);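 also: 0% = DMSO wells and 100% = chloroquine plus artemisinin control wells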; conditions: P. falciparum 3D7 erythrocytic growth, LDH absorbance, 72 h; at 2 µM; hits give high values
One number for each entry, in %.

Please review the following examples before continuing.
# input Field request: growth inhibition | item: `Cc1cc(-c2ccc(O)c(CNC3CCCCC3)c2)cnc1N`
# output 102

# input Field request: growth inhibition | item: `CCS(=O)(=O)Nc1ccc2[nH]c(O)c(C(=Nc3ccc(CN4CCCCC4)cc3)c3ccccc3)c2c1`
# output 87

# input Field request: growth inhibition | item: `COc1ccc(CNCc2ccccc2)cc1-c1ccc(S(=O)(=O)NCCN2CCCC2)cc1`
# output 96

Please give growth inhibition, item by item, for the list that follows.
1. Cc1nc(-c2ccc(-c3ccc(NC(=O)c4coc5ccc(N6C[C@@H](C)N[C@@H](C)C6)cc45)cc3)c(C)c2)no1
2. Cc1cc(NCC2CCN(CC3CCCCC3)C2)nc(Nc2ccc(Br)cc2)n1 (centres undefined)
3. O=C(Nc1cc(Cl)ccc1O)c1ccc(Oc2ccc(C(=O)Nc3cc(Cl)ccc3O)cc2)cc1

# output
1: 101; 2: 101; 3: 97

Please give growth inhibition, item by item, for the list that follows.
1. NC(=O)COc1cccc2c1CCN(CCN1CCC(NC(=O)c3ccc(-c4ccc(Cl)cc4)cc3)CC1)C2
2. CCCc1cn2c3c(cc(C(=O)N[C@@H](Cc4ccccc4)[C@H](O)CNC4CCCCC4)cc13)N(CC)S(=O)(=O)CC2
3. Cc1ccc2nc(C)cc(NC(=O)Nc3ccc(N(C)C)cc3)c2c1
4. COc1ccc(-n2ccnc2SCC(=O)Nc2cc(C)ccc2C)c(OC)c1
5. COc1ccc2nccc([C@@H](O)CN3CCC(NCc4ccc5c(c4)nnn5C(C)C)CC3)c2c1

# output
1: 92; 2: 98; 3: 100; 4: 94; 5: 100

Please give growth inhibition, item by item, for the list that follows.
1. Cc1cc(N[C@@H](Cc2ccccc2)C(=O)NCCc2ccccc2)nc(NCCc2ccc(F)cc2)n1
2. CCCC(C)Nc1nc(C)cc(N[C@@H](CC(C)C)C(=O)NCc2ccc(C)cc2)n1 (some centres undefined)

# output
1: 99; 2: 98

---

Kindly state viability decrease (inhibition) for each of the entries shown.
experiment: decreased DLD-1 cellular survival, CellTiter-Glo luminescent readout, NPC compound collection, primary HTS (AID 1117346); details: DLD-1 viability, CellTiter-Glo luminescence; at 20 µM (top of the series)
Active and inactive are the calls of the source.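 Rule for the calls: active = compounds that lower survival of DLD-1 colon cancer cells in the luminescence readout, no cutoff given; inactive = the rest.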

Please review the following examples before continuing.
# input Field request: viability decrease (inhibition) | item: COc1ccc(CCN(C)CCCC(C#N)(c2cc(OC)c(OC)c(OC)c2)C(C)C)cc1OC (stereo unspecified)
# output 4.6% (inactive)

# input Field request: viability decrease (inhibition) | item: `C[C@]12CCC(=O)C=C1CC[C@@H]1[C@@H]2CC[C@@]2(C)[C@H]1CC[C@]2(O)C(=O)CO`
# output -6.8% (inactive)

# input Field request: viability decrease (inhibition) | item: CN1C(=O)CC(c2ccccc2)C1=O (stereo unspecified)
# output 12.9% (inactive)

# input Field request: viability decrease (inhibition) | item: `CCN(CC)C(=O)c1cccnc1`
# output 6.2% (inactive)

# input Field request: viability decrease (inhibition) | item: `N=c1nc(N2CCCCC2)cc(N)n1O`
# output 7.1% (inactive)

# input Field request: viability decrease (inhibition) | item: `COc1ccc(-c2ccc3cc(C(=O)O)ccc3c2)cc1C12CC3CC(CC(C3)C1)C2`
# output 102% (active)

# input Field request: viability decrease (inhibition) | item: `CCCCN1C[C@H](O)[C@@H](O)[C@H](O)[C@H]1CO`
# output 3.5% (inactive)

# input Field request: viability decrease (inhibition) | item: `c1cnc2cc3c(cc2n1)C1CNCC3C1`
# output -12.7% (inactive)

# input Field request: viability decrease (inhibition) | item: `O=S(=O)(O)NC1CCCCC1`
# output 1.3% (inactive)

# input Field request: viability decrease (inhibition) | item: `O=C1CC[C@@H](C(=O)O)N1`
# output 6.75% (inactive)

Please give viability decrease (inhibition), item by item, for the list that follows.
1. Cc1cc2c(cc1S(N)(=O)=O)S(=O)(=O)CCC2
2. CCCC(CCC)C(=O)O
3. O=[N+]([O-])c1cccc(S(=O)(=O)NCCNS(=O)(=O)c2cccc([N+](=O)[O-])c2)c1
4. C=C1C[C@H]2[C@@H]3C=C(C)C4=CC(=O)CC[C@]4(C)[C@H]3CC[C@]2(C)[C@@]1(OC(C)=O)C(C)=O
5. C[C@H]1O[C@H](O[C@H]2[C@H](O)[C@@H](O)[C@@H](O[C@H]3[C@H](O)[C@@H](O)[C@H](O)O[C@@H]3CO)O[C@@H]2CO)[C@H](O)[C@@H](O)[C@@H]1N[C@H]1C=C(CO)[C@@H](O)[C@H](O)[C@H]1O
6. CS(=O)(=O)c1ccc([C@@H](O)[C@@H](CF)NC(=O)C(Cl)Cl)cc1

# output
-1.8% (inactive)
13.5% (inactive)
14.5% (inactive)
53.6% (active)
-0.5% (inactive)
13.6% (inactive)

Please give viability decrease (inhibition), item by item, for the list that follows.
1. O=C(CCCl)NCc1ccccc1
2. CC(C)(CO)[C@@H](O)C(=O)NCCCO
3. CC(=O)NCc1c(I)c(NC(C)=O)c(I)c(C(=O)O)c1I
4. CC(C)(C)NC(=O)[C@@H]1C[C@@H]2CCCC[C@H]2CN1C[C@@H](O)[C@H](Cc1ccccc1)NC(=O)[C@H](CC(N)=O)NC(=O)c1ccc2ccccc2n1
5. N[C@@H](Cc1ccc(O)cc1)C(=O)O
6. OCCN1CCN(CC/C=C2/c3ccccc3Sc3ccc(C(F)(F)F)cc32)CC1

# output
1. 14.6% (inactive)
2. -5.1% (inactive)
3. -14.8% (inactive)
4. 88.3% (active)
5. -0.1% (inactive)
6. 102% (active)

Please give viability decrease (inhibition), item by item, for the list that follows.
1. O=c1[nH]c(=O)c2[nH]c(=O)[nH]c2[nH]1
2. Clc1ccc(Cn2c(CN3CCCC3)nc3ccccc32)cc1

# output
9.1% (inactive)
19.7% (inactive)

Please give viability decrease (inhibition), item by item, for the list that follows.
1. Clc1ccc(C(Cn2ccnc2)OCc2c(Cl)cccc2Cl)c(Cl)c1 (stereo unspecified)
2. O=C(O)c1ccc(-n2nc(-c3ccccc3O)nc2-c2ccccc2O)cc1
3. CN(C(=O)C(Cl)Cl)c1ccc(OC(=O)c2ccco2)cc1
4. CCn1ccnc1CC1COc2ccccc2O1 (stereo unspecified)
5. NS(=O)(=O)c1cc(Cl)c(Cl)c(S(N)(=O)=O)c1
6. COC(=O)C1=C(C)NC(C)=C(C(=O)OC)C1c1ccccc1[N+](=O)[O-]
7. CCCCCCCCCCOc1cc2c(=O)c(C(=O)OCC)c[nH]c2cc1OCC

# output
["101% (active)", "93.6% (active)", "-2.6% (inactive)", "-5.9% (inactive)", "-8.2% (inactive)", "93.1% (active)", "-42% (inactive)"]

Data provenance is PubChem BioAssay.
